Assign Selectivity Index to each entry below.
- assay text: Selectivity index, ratio of IC50 for african green monkey Vero cells to MIC for Mycobacterium tuberculosis H37Rv
- Type: functional

Worked set:
structure	value observed
CC(=O)C1=C(C)N(c2ccccc2C)C(C)=C(C(C)=O)C1c1cn(-c2ccccc2)nc1-c1ccccc1	>3.2
CCOC(=O)C1=C(C)N(c2cccc(Cl)c2)C(C)=C(C(=O)OCC)C1c1cn(-c2ccccc2)nc1-c1ccccc1	4.5
CC(=O)C1=C(C)N(c2cccc(C)c2)C(C)=C(C(C)=O)C1c1cn(-c2ccccc2)nc1-c1ccccc1	>1.6

Then this compound:
Kindly indicate its recorded Selectivity Index. Item: CCOC(=O)C1=C(C)N(c2cccc(C)c2)C(C)=C(C(=O)OCC)C1c1cn(-c2ccccc2)nc1-c1ccccc1 >6.4

From: ChEMBL document CHEMBL1817641
